# methodDescription: Growth inhibition of African green monkey Vero cells after 48 hrs by sulforhodamine B assay
# Format: cell-based
# conditionsUsed: chlorocebus sabaeus, Vero cells
Parameter GI50 at 48 h: see the listing below.
I only need the number, in µM, no unit after it.

Which GI50 at 48 h value belongs to CC(=O)O[C@H]1C(=O)[C@@]2(C)[C@H]([C@H](OC(=O)c3ccccc3)[C@]3(O)C[C@H](OC(=O)[C@H](O)[C@@H](NC(=O)c4ccccc4)c4ccccc4)C(C)=C1C3(C)C)[C@]1(OC(C)=O)CO[C@@H]1C[C@@H]2O ?
0.03

Which GI50 at 48 h value belongs to COc1cc(/C=N/NC(=S)NC(C)(C)[C@H]2CC=C(C)CC2)ccc1O ?
19.7

Which GI50 at 48 h value belongs to CC1=CC[C@H](C(C)(C)NC(=S)N/N=C/c2ccc(C)cc2)CC1 ?
81.4

Consider now this further molecule.
Which GI50 at 48 h value belongs to CC1=CC[C@H](C(C)(C)NC(=S)N/N=C/c2ccc(N(C)C)cc2)CC1 ?
75.6

---

# methodDescription: Growth inhibition of human UACC62 cells after 48 hrs by sulforhodamine B assay
# Format: functional
# conditionsUsed: UACC-62, 48 h
experimentalReadout: TGI (µM)
I only need the number, in µM, no unit after it.

Which TGI value belongs to CC1=CC[C@H](C(C)(C)NC(=S)N/N=C/c2cccs2)CC1 ?
19

Which TGI value belongs to CC1=CC[C@H](C(C)(C)NC(=S)N/N=C/c2cccc(Cl)c2)CC1 ?
39.8

Which TGI value belongs to COc1cc(/C=N/NC(=S)NC(C)(C)[C@H]2CC=C(C)CC2)ccc1O ?
42.3

Further cases:
Which TGI value belongs to CC1=CC[C@H](C(C)(C)NC(=S)N/N=C(\C)c2ccc([N+](=O)[O-])cc2)CC1 ?
46.8

Which TGI value belongs to CC1=CC[C@H](C(C)(C)NC(=S)N/N=C/c2ccc[nH]2)CC1 ?
49.9

Which TGI value belongs to COc1ccc(/C=N/NC(=S)NC(C)(C)[C@H]2CC=C(C)CC2)cc1 ?
70.4

Which TGI value belongs to CC1=CC[C@H](C(C)(C)NC(=S)N/N=C/c2ccccc2O)CC1 ?
10.8

---

# Tested on: HT-29
# methodDescription: Growth inhibition of human HT-29 cells after 48 hrs by sulforhodamine B assay
# Assay type: functional
# conditionsUsed: HT-29, 48 h
Parameter GI50: see the listing below.
I only need the number, in µM, no unit after it.

Which GI50 value belongs to CC1=CC[C@H](C(C)(C)NC(=S)N/N=C/c2ccccc2Cl)CC1 ?
71.3

Consider now this further molecule.
Which GI50 value belongs to CC1=CC[C@H](C(C)(C)NC(=S)N/N=C/c2ccc(C)cc2)CC1 ?
20.2

---

# methodDescription: Growth inhibition of African green monkey Vero cells after 48 hrs by sulforhodamine B assay
# Assay type: cell-based
# conditionsUsed: chlorocebus sabaeus, Vero cells
experimentalReadout: log10(GI50 at 48 h) (log10 of the value in µM)
Recorded GI50 at 48 h (log10, µM)

Which log10(GI50 at 48 h) value belongs to CC1=CC[C@H](C(C)(C)NC(=S)N/N=C/c2cccc(Cl)c2)CC1 ?
1.17

Which log10(GI50 at 48 h) value belongs to CC1=CC[C@H](C(C)(C)NC(=S)N/N=C/c2ccccc2O)CC1 ?
0.49

Which log10(GI50 at 48 h) value belongs to COc1ccc(/C=N/NC(=S)NC(C)(C)[C@H]2CC=C(C)CC2)cc1 ?
1.09

Which log10(GI50 at 48 h) value belongs to CC1=CC[C@H](C(C)(C)NC(=S)N/N=C/c2ccccc2Cl)CC1 ?
1.87

Which log10(GI50 at 48 h) value belongs to CC1=CC[C@H](C(C)(C)NC(=S)N/N=C/c2ccccc2)CC1 ?
1.31

Further cases:
Which log10(GI50 at 48 h) value belongs to CC1=CC[C@H](C(C)(C)NC(=S)NN)CC1 ?
1.69

Which log10(GI50 at 48 h) value belongs to CC1=CC[C@H](C(C)(C)NC(=S)N/N=C/c2ccc[nH]2)CC1 ?
1.31

Which log10(GI50 at 48 h) value belongs to CC1=CC[C@H](C(C)(C)NC(=S)N/N=C(\C)c2ccc([N+](=O)[O-])cc2)CC1 ?
1.83

---

Parameter TGI: see the listing below.
# System: NCI-H460
# methodDescription: Growth inhibition of human NCI-H460 cells after 48 hrs by sulforhodamine B assay
# Type: functional
# conditionsUsed: NCI-H460, 48 h
I only need the number, in µM, no unit after it.

Which TGI value belongs to CC(=O)O[C@H]1C(=O)[C@@]2(C)[C@H]([C@H](OC(=O)c3ccccc3)[C@]3(O)C[C@H](OC(=O)[C@H](O)[C@@H](NC(=O)c4ccccc4)c4ccccc4)C(C)=C1C3(C)C)[C@]1(OC(C)=O)CO[C@@H]1C[C@@H]2O ?
0.08

Which TGI value belongs to CC1=CC[C@H](C(C)(C)NC(=S)N/N=C(\C)c2ccc([N+](=O)[O-])cc2)CC1 ?
83.7

Which TGI value belongs to COc1ccc(/C=N/NC(=S)NC(C)(C)[C@H]2CC=C(C)CC2)cc1 ?
47.8

Further cases:
Which TGI value belongs to CC1=CC[C@H](C(C)(C)NC(=S)N/N=C/c2cccc(Cl)c2)CC1 ?
21.4

Which TGI value belongs to CC1=CC[C@H](C(C)(C)NC(=S)N/N=C/c2ccccc2)CC1 ?
53.9

Which TGI value belongs to CC1=CC[C@H](C(C)(C)NC(=S)N/N=C/c2ccco2)CC1 ?
10.8

Which TGI value belongs to CC1=CC[C@H](C(C)(C)NC(=S)N/N=C/c2ccccc2[N+](=O)[O-])CC1 ?
32.7

---

# methodDescription: Growth inhibition of African green monkey Vero cells after 48 hrs by sulforhodamine B assay
# Assay type: cell-based
# conditionsUsed: chlorocebus sabaeus, Vero cells
Parameter GI50 at 48 h: see the listing below.

Known GI50 at 48 h results, listed for orientation:
Which GI50 at 48 h value belongs to CC1=CC[C@H](C(C)(C)NC(=S)N/N=C/c2ccccc2[N+](=O)[O-])CC1 ?
21.6 µM

Which GI50 at 48 h value belongs to CC1=CC[C@H](C(C)(C)NC(=S)N/N=C/c2cccc([N+](=O)[O-])c2)CC1 ?
> 100 µM

Consider now this further compound.
Which GI50 at 48 h value belongs to CC1=CC[C@H](C(C)(C)NC(=S)N/N=C(\C)c2ccccc2)CC1 ?
> 100 µM

---

# System: MCF7
# methodDescription: Growth inhibition of human MCF7 cells after 48 hrs by sulforhodamine B assay
# Assay type: functional
# conditionsUsed: MCF7, 48 h
Parameter TGI: see the listing below.
I only need the number, in µM, no unit after it.

Which TGI value belongs to CC1=CC[C@H](C(C)(C)NC(=S)NN)CC1 ?
46.7

Which TGI value belongs to CC(=O)O[C@H]1C(=O)[C@@]2(C)[C@H]([C@H](OC(=O)c3ccccc3)[C@]3(O)C[C@H](OC(=O)[C@H](O)[C@@H](NC(=O)c4ccccc4)c4ccccc4)C(C)=C1C3(C)C)[C@]1(OC(C)=O)CO[C@@H]1C[C@@H]2O [PACLITAXEL] ?
0.4

Which TGI value belongs to CC1=CC[C@H](C(C)(C)NC(=S)N/N=C/c2ccc[nH]2)CC1 ?
11.5

Which TGI value belongs to CC1=CC[C@H](C(C)(C)NC(=S)N/N=C/c2ccccc2O)CC1 ?
17.5

Which TGI value belongs to COc1cc(/C=N/NC(=S)NC(C)(C)[C@H]2CC=C(C)CC2)ccc1O ?
63.9

Which TGI value belongs to CC1=CC[C@H](C(C)(C)NC(=S)N/N=C/c2ccco2)CC1 ?
53.7

Which TGI value belongs to CC1=CC[C@H](C(C)(C)NC(=S)N/N=C/c2ccccc2[N+](=O)[O-])CC1 ?
94.7

Which TGI value belongs to CC1=CC[C@H](C(C)(C)NC(=S)N/N=C/c2ccc(C)cc2)CC1 ?
93.6

---

# methodDescription: Growth inhibition of human OVCAR3 cells after 48 hrs by sulforhodamine B assay
# Format: functional
# conditionsUsed: OVCAR-3, 48 h
experimentalReadout: GI50 (µM)
I only need the number, in µM, no unit after it.

Which GI50 value belongs to CC1=CC[C@H](C(C)(C)NC(=S)N/N=C/c2cccs2)CC1 ?
13.1

Which GI50 value belongs to COc1ccc(/C=N/NC(=S)NC(C)(C)[C@H]2CC=C(C)CC2)cc1 ?
7.9

Which GI50 value belongs to CC1=CC[C@H](C(C)(C)NC(=S)N/N=C(\C)c2ccc([N+](=O)[O-])cc2)CC1 ?
7.7

Which GI50 value belongs to CC1=CC[C@H](C(C)(C)NC(=S)N/N=C/c2ccccc2O)CC1 ?
5.5

Which GI50 value belongs to CC1=CC[C@H](C(C)(C)NC(=S)NN)CC1 ?
41.9

Further cases:
Which GI50 value belongs to CC1=CC[C@H](C(C)(C)NC(=S)N/N=C/c2ccccc2)CC1 ?
8.7
